# study_target: T1, human CD30 (commercial, conjugated to digoxigenin) (human, UniProt P28908 19-379, limits assumed, conjugated to digoxigenin (DIG))
# T1 sequence (looked up): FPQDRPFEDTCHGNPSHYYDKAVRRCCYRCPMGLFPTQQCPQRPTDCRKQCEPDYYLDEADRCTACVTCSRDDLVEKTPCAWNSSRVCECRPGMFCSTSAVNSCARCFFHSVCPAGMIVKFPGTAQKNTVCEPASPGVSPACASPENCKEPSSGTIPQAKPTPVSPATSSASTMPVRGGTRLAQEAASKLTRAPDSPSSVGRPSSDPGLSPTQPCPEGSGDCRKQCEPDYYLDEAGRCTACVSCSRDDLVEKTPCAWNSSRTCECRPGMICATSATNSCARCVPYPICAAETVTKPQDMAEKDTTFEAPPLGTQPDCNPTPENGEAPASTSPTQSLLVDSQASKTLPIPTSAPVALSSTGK
# test_summary: AlphaScreen competition
property_measured: Fold IC50 vs H3/L3

[ask] Which Fold IC50 vs H3/L3 is reported for this binder? AC10 H3/L3.2 (antibody, IgG1, name in Kabat numbering, V domains shown) VH: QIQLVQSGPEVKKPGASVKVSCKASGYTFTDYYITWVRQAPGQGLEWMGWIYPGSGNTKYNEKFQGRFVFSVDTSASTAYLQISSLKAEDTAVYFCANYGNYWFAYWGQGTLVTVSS VL: EIVLTQSPDSLAVSLGERATINCKASQSVDFDGDSYMNWYQQKPGQPPKVLIYAASNLESGIPARFSGSGSGTDFTLTINSLEAEDAATYYCQQSNEDPWTFGGGTKVEIK
[reply] 1.24 fold

[ask] Would you mind telling me what Fold IC50 vs H3/L3 value was observed for AC10 H3/L3.30 (antibody, IgG1, name in Kabat numbering, V domains shown) VH: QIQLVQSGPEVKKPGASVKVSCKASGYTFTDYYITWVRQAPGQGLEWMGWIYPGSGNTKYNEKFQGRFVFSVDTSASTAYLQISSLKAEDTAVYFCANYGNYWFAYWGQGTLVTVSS VL: DIVLTQSPDSLAVSLGERATINCKASQSVDFDGDSYMNWYQQKPGQPPKLLIYAASNLESGIPARFSGSGSGTDFTLTINSLEAEDAATYYCQQSNEDPWTFGGGTKVEIK ?
[reply] 0.39 fold

[ask] Tell me the measured Fold IC50 vs H3/L3 of AC10 H3/L3.1 (antibody, IgG1, name in Kabat numbering, V domains shown) VH: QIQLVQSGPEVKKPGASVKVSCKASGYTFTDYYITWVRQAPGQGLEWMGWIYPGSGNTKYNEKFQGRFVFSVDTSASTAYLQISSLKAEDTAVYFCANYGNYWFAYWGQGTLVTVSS VL: AIVLTQSPDSLAVSLGERATINCKASQSVDFDGDSYMNWYQQKPGQPPKVLIYAASNLESGIPARFSGSGSGTDFTLTINSLEAEDAATYYCQQSNEDPWTFGGGTKVEIK , please.
[reply] 1.3 fold

[ask] Look at this binder and give its reported Fold IC50 vs H3/L3. AC10 H3/L3.18 (antibody, IgG1, name in Kabat numbering, V domains shown) VH: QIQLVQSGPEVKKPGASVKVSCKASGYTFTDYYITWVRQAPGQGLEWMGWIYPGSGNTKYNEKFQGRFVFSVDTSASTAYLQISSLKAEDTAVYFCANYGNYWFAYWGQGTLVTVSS VL: DIVLTQSPDSLAVSLGERATINCKASQSVDFDGNSYMNWYQQKPGQPPKVLIYAASNLESGIPARFSGSGSGTDFTLTINSLEAEDAATYYCQQSNEDPWTFGGGTKVEIK
[reply] 1.45 fold

[ask] Query: Fold IC50 vs H3/L3; subject: AC10 H3/L3.19 (antibody, IgG1, name in Kabat numbering, V domains shown) VH: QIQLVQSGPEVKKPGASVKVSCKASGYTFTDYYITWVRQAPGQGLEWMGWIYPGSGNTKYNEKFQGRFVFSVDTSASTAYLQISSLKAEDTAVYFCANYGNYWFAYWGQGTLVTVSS VL: DIVLTQSPDSLAVSLGERATINCKASQSVDFDGSSYMNWYQQKPGQPPKVLIYAASNLESGIPARFSGSGSGTDFTLTINSLEAEDAATYYCQQSNEDPWTFGGGTKVEIK
[reply] 1.13 fold

[ask] For the binder AC10 H3/L3.34 (antibody, IgG1, name in Kabat numbering, V domains shown) VH: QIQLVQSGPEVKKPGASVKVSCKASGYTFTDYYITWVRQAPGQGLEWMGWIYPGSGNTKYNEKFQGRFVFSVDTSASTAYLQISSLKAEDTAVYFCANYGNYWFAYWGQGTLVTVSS VL: DIVLTQSPDSLAVSLGERATINCKASQSVDFDGDSYMNWYQQKPGQPPKVLIYSASNLESGIPARFSGSGSGTDFTLTINSLEAEDAATYYCQQSNEDPWTFGGGTKVEIK , what Fold IC50 vs H3/L3 is on record?
[reply] 0.47 fold

[ask] // returns reported Fold IC50 vs H3/L3 for input AC10 H3/L3.49 (antibody, IgG1, name in Kabat numbering, V domains shown) VH: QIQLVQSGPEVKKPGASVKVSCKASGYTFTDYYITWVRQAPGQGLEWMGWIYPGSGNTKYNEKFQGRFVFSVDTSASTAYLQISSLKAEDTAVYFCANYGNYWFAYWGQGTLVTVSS VL: DIVLTQSPDSLAVSLGERATINCKASQSVDFDGDSYMNWYQQKPGQPPKVLIYAASNLESGIPARFSGSGSGTDFTLTINSLEAEDAATYYCQQHNEDPWTFGGGTKVEIK
[reply] 0.01 fold

[ask] Consider the binder shown here: AC10 H3/L3.55 (antibody, IgG1, name in Kabat numbering, V domains shown) VH: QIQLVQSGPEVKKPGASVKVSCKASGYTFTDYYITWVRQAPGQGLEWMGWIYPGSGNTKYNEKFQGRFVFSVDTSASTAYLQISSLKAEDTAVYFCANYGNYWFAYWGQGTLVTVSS VL: DIVLTQSPDSLAVSLGERATINCKASQSVDFDGDSYMNWYQQKPGQPPKVLIYAASNLESGIPARFSGSGSGTDFTLTINSLEAEDAATYYCQQSNKDPWTFGGGTKVEIK What is its recorded Fold IC50 vs H3/L3?
[reply] 0.27 fold

[ask] Any idea what its Fold IC50 vs H3/L3 is? The binder is AC10 H3/L3.17 (antibody, IgG1, name in Kabat numbering, V domains shown) VH: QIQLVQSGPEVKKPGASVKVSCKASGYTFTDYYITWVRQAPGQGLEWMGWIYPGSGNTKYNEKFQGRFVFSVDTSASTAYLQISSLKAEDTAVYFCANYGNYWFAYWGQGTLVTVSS VL: DIVLTQSPDSLAVSLGERATINCKASQSVDFDGKSYMNWYQQKPGQPPKVLIYAASNLESGIPARFSGSGSGTDFTLTINSLEAEDAATYYCQQSNEDPWTFGGGTKVEIK
[reply] 1.21 fold

[ask] Given the entry AC10 H3/L3.15 (antibody, IgG1, name in Kabat numbering, V domains shown) VH: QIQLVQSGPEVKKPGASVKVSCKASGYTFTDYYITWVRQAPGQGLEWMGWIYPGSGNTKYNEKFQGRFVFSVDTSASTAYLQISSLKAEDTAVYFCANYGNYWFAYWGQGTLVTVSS VL: DIVLTQSPDSLAVSLGERATINCKASQSVDYDGDSYMNWYQQKPGQPPKVLIYAASNLESGIPARFSGSGSGTDFTLTINSLEAEDAATYYCQQSNEDPWTFGGGTKVEIK , report its measured Fold IC50 vs H3/L3.
[reply] 0.63 fold

[ask] Name the reported Fold IC50 vs H3/L3 value associated with the binder AC10 H3/L3.54 (antibody, IgG1, name in Kabat numbering, V domains shown) VH: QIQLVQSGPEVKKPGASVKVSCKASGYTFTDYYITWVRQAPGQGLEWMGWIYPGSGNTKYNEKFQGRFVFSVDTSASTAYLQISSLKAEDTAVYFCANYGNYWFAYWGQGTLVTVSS VL: DIVLTQSPDSLAVSLGERATINCKASQSVDFDGDSYMNWYQQKPGQPPKVLIYAASNLESGIPARFSGSGSGTDFTLTINSLEAEDAATYYCQQSYEDPWTFGGGTKVEIK
[reply] 0.96 fold
